measured-target: isolated recombinant JAK1 kinase domain (Homo sapiens (Human))
protocol-summary: JAK1 enzyme assay (Caliper LabChip, Ki)
Assay type: biochemical
experimental-conditions: read-out: JAK1 Ki
measured-attribute: pKi
Answers are plain numbers, as −log10 of the molar value.

Worked cases, pKi given:
input: Determine its reported pKi: N#CCC1(n2cc(C(N)=O)c(NC(=O)C3CC3)n2)CCN(Cc2ccccc2Br)CC1
output: 8.21

input: Please report the measured pKi for N#CCC1(n2cc(C(N)=O)c(NC(=O)C3CC3)n2)CCN(Cc2cccc(C#N)c2)CC1
output: 7.86

Kindly give each listed record's pKi.
1. COC(=O)Nc1nn(C2(CC#N)CCN(Cc3ccc(C4=CCCC4)cc3)CC2F)cc1C(N)=O (stereo not shown)
2. N#CCC1(n2cc(C(N)=O)c(NC(=O)C3CC3)n2)CCN(Cc2ccc(I)cc2)CC1

output:
1: 9.05; 2: 8.49

----------
measured-target: isolated recombinant JAK2 kinase domain (Homo sapiens (Human))
protocol-summary: JAK2 enzyme assay (Caliper LabChip, Ki)
For each record, write down the corresponding Ki.
Give bare numbers, in nM.

Example results:
input: # assay system isolated recombinant JAK2 kinase domain (Homo sapiens (Human)): give Ki of N#CCC1(n2cc(C(N)=O)c(NC(=O)C3CC3)n2)CCC(Oc2ccc(-c3ccccc3)cc2)CC1 (single isomer, unassigned) [Example 210]
output: 5.1

input: Provide the reported Ki (system: isolated recombinant JAK2 kinase domain (Homo sapiens (Human))) for N#CCC1(n2cc(C(N)=O)c(NC(=O)C3CC3)n2)CCN(Cc2ccc(-c3ccn(C(F)(F)F)n3)cc2)CC1
output: 313

input: Return reported Ki for target or system isolated recombinant JAK2 kinase domain (Homo sapiens (Human)), item N#CCC1(n2cc(C(N)=O)c(NC(=O)C3CC3C#N)n2)CCN(CC2CCC(c3ccccc3)CC2)CC1F (stereo not shown) [Example 231] .
output: 8.3

We now examine a further compound.
input: Retrieve Ki on isolated recombinant JAK2 kinase domain (Homo sapiens (Human)); query N#CCC1(n2cc(C(N)=O)c(NC(=O)C3CC3)n2)CCN(Cc2ccc(-c3ncco3)cc2)CC1F (stereo not shown)
output: 0.96

----------
measured-target: isolated recombinant JAK1 kinase domain (Homo sapiens (Human), UniProt P23458)
Sequence (P23458 875-1153): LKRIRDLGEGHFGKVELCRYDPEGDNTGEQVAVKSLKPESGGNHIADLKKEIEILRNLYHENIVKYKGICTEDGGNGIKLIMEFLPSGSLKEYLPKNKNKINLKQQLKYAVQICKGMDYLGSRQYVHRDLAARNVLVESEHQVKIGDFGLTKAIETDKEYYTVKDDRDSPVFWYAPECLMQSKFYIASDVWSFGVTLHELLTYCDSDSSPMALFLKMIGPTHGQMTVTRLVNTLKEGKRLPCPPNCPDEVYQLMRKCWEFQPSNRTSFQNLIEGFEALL
protocol-summary: JAK1 enzyme assay (Caliper LabChip, Ki)
Format: biochemical
experimental-conditions: read-out: JAK1 Ki
measured-attribute: pKi
Numbers only, as −log10 of the molar value.

These solved cases illustrate the format of a correct answer.
input: Report value: pKi, system: isolated recombinant JAK1 kinase domain (Homo sapiens (Human), UniProt P23458), compound: C=Cc1cc(F)c(CN2CCC(CC#N)(n3cc(C(N)=O)c(NC(=O)OC)n3)C(F)C2)cc1O (stereo not drawn)
output: 9.72

input: // fetch pKi; item: C#CC1CC1C(=O)Nc1nn(C2(CC#N)CCN(Cc3ccc(-c4ccccc4)cc3)CC2F)cc1C(N)=O (stereo not drawn) ; system: isolated recombinant JAK1 kinase domain (Homo sapiens (Human), UniProt P23458)
output: 9.37

Please supply pKi for each of the following items, keeping them in order.
1. COC(=O)Nc1nn(C2(CC#N)CCN(Cc3ccc(-c4ccoc4)nc3F)CC2F)cc1C(N)=O (stereo not drawn)
2. C[C@@H]1C[C@H]1C(=O)Nc1nn(C2(CC#N)CCN(CC(F)(F)F)CC2)cc1C(N)=O
3. N#CCC1(n2cc(C(N)=O)c(NC(=O)C3CC3)n2)CCN(CCC(F)(F)F)CC1

output:
9.29
7.14
7.62

For each of the items listed, what is its pKi?
1. CS(=O)(=O)c1cccc(CN2CCC(CC#N)(n3cc(C(N)=O)c(NC(=O)C4CC4)n3)CC2)c1
2. N#CCC1(n2cc(C(N)=O)c(NC(=O)[C@H]3C[C@@H]3C(F)(F)F)n2)CCN(CC(F)(F)F)CC1
3. C#Cc1ccc(CN2CCC(CC#N)(n3cc(C(N)=O)c(NC(=O)OC)n3)C(F)C2)c(F)c1 (stereo not drawn)
4. N#CCC1(n2cc(C(N)=O)c(NC(=O)C3CC3)n2)CCN(Cc2ccc(C3=CCCCC3)cc2)CC1F (stereo not drawn)
5. N#CCC1(n2cc(C(N)=O)c(NC(=O)[C@H]3CC34CCC4)n2)CCN(CC(F)(F)F)CC1
6. CCOP(=O)(OCC)c1ccc(Nc2nn([C@]3(CC#N)CC[C@@H](N4CC(C(F)(F)F)C4)CC3)cc2C(N)=O)cc1
7. N#CCC1(n2cc(C(N)=O)c(NC(=O)C3CC3)n2)CCN(C(=O)OCC2CC2)CC1
8. COC(=O)Nc1nn(C2(CC#N)CCN(Cc3ccc(-c4ccccc4)nc3F)CC2F)cc1C(N)=O (stereo not drawn)

output:
[7.51, 6.99, 9.28, 9.32, 7.02, 9.41, 8.40, 9.60]

Parameter requested: pKi. Apply to each item below.
1. N#CCC1(n2cc(C(N)=O)c(NC(=O)C3CC3C#N)n2)CCN(CC2CCC(c3ccccc3)CC2)CC1F (stereo not drawn) [Example 230]
2. N#CCC1(n2cc(C(N)=O)c(NC(=O)C3CC3)n2)CCN(Cc2ccc(Cl)cc2)CC1
3. CN(C)C(=O)c1cccc(-c2ccc(CN3CCC(CC#N)(n4cc(C(N)=O)c(NC(=O)C5CC5)n4)CC3)cc2)c1
4. N#CCC1(n2cc(C(N)=O)c(NC(=O)C3CC3)n2)CCC2(CC1)COC2

output:
1: 9.29; 2: 8.41; 3: 8.51; 4: 7.64

Please supply pKi for each of the following items, keeping them in order.
1. N#CCC1(n2cc(C(N)=O)c(NC(=O)C3CC3)n2)CCN(Cc2ccc(-c3ccccc3)nc2)CC1F (stereo not drawn)
2. CCS(=O)(=O)Nc1cccc(CN2CCC(CC#N)(n3cc(C(N)=O)c(NC(=O)C4CC4)n3)CC2)c1
3. N#CCC1(n2cc(C(N)=O)c(NC(=O)C3CC3)n2)CCN(Cc2ccc(-c3ccccc3)c(Cl)c2)CC1
4. COC(=O)Nc1nn(C2(CC#N)CCN(Cc3cnc(-c4ccccc4)cc3F)CC2F)cc1C(N)=O (stereo not drawn)
5. N#CCC1(n2cc(C(N)=O)c(NC(=O)C3CC3)n2)CCN(Cc2ccc(-c3ccoc3)cc2)CC1F (stereo not drawn)
6. N#CCC1(n2cc(C(N)=O)c(NC(=O)C3CC3C#N)n2)CCN(Cc2ccc(-c3ccccc3)cc2F)CC1F (stereo not drawn) [Example 218]
7. COC(=O)Nc1nn(C2(CC#N)CCN(Cc3cc(O)c(Br)cc3Cl)CC2F)cc1C(N)=O (stereo not drawn)

output:
[9.48, 8.57, 8.68, 9.47, 9.51, 9.46, 9.25]

Would you mind giving pKi for every compound in the list below?
1. N#CCC1(n2cc(C(N)=O)c(NC(=O)C3CC3)n2)CCN(Cc2cccc(I)c2)CC1
2. N#CCC1(n2cc(C(N)=O)c(NC(=O)C3CC3)n2)CCN(Cc2ccc(-n3ccnc3)cc2)CC1
3. CCn1ccc(-c2ccc(CN3CCC(CC#N)(n4cc(C(N)=O)c(NC(=O)C5CC5)n4)C(F)C3)c(F)c2)n1 (stereo not drawn)

output:
1: 7.97; 2: 7.35; 3: 9.22

Report pKi for every entry below.
1. CCc1ccc(-c2ccc(CN3CCC(CC#N)(n4cc(C(N)=O)c(NC(=O)C5CC5)n4)C(F)C3)cc2O)cc1 (stereo not drawn)
2. COC(=O)Nc1nn(C2(CC#N)CCN(Cc3ccc(C4=CCCCC4)c(O)c3)CC2F)cc1C(N)=O (stereo not drawn)
3. CCOC1(C(F)(F)F)CN([C@H]2CC[C@@](CC#N)(n3cc(C(N)=O)c(NC(=O)C4CC4)n3)CC2)C1 (single isomer, unassigned)

output:
1. 9.66
2. 9.47
3. 8.66

----------
measured-target: isolated recombinant JAK2 kinase domain (Homo sapiens (Human), UniProt O60674)
Sequence (O60674 849-1124): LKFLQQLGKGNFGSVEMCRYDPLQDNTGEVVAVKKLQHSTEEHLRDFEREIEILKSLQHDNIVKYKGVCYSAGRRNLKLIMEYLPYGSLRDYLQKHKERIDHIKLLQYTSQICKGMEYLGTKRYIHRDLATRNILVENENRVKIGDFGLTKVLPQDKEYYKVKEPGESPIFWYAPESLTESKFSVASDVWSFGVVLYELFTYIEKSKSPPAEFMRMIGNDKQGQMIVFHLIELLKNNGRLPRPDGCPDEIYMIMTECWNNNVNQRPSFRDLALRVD
protocol-summary: JAK2 enzyme assay (Caliper LabChip, Ki)
measured-attribute: pKi
Give bare numbers, as −log10 of the molar value.

input: Find the measured pKi of N#CCC1(n2cc(C(N)=O)c(NC(=O)C3CC3)n2)CCC(Nc2ccc(-c3ccccc3)cc2)CC1 (stereo not drawn) and report it.
output: 9.04

Fill in pKi for each of the 8 compounds listed.
1. COC(=O)Nc1nn(C2(CC#N)CCN(CC3CCC(c4ccccc4)CC3)CC2F)cc1C(N)=O (stereo not drawn) [Example 236]
2. COC(=O)Nc1nn(C2(CC#N)CCN(Cc3ccc(-c4ccccc4)nc3)CC2F)cc1C(N)=O (stereo not drawn)
3. CC(OC(=O)N1CCC(CC#N)(n2cc(C(N)=O)c(NC(=O)C3CC3)n2)CC1)C1CC1 (stereo not drawn)
4. COC(=O)Nc1nn(C2(CC#N)CCN(Cc3ccc(C4=CCCCC4)cc3)CC2F)cc1C(N)=O (stereo not drawn)
5. CC1(C)CN([C@H]2CC[C@@](CC#N)(n3cc(C(N)=O)c(NC(=O)C4CC4)n3)CC2)C1
6. COC(=O)Nc1nn(C2(CC#N)CCN(Cc3ccc(-c4ccco4)c(O)c3)CC2F)cc1C(N)=O (stereo not drawn)
7. N#CCC1(n2cc(C(N)=O)c(NC(=O)C3CC3)n2)CCN(Cc2cc(O)c(-c3ccccc3)cc2F)CC1F (stereo not drawn)
8. COC(=O)Nc1nn(C2(CC#N)CCN(Cc3ccc(-n4nccn4)cc3)CC2F)cc1C(N)=O (stereo not drawn)

output:
8.85
9.57
7.29
8.89
6.48
9.82
9.89
9.02

Lab note: each compound below needs its pKi filled in.
1. CS(=O)(=O)Nc1cccc(CN2CCC(CC#N)(n3cc(C(N)=O)c(NC(=O)C4CC4)n3)CC2)c1
2. COc1ccc(-c2ccc(CN3CCC(CC#N)(n4cc(C(N)=O)c(NC(=O)C5CC5)n4)CC3)cc2)cc1
3. N#CC[C@]1(n2cc(C(N)=O)c(NC(=O)C3CC3)n2)CC[C@@H](NCc2cccc(C#N)c2)CC1
4. N#CCC1(n2cc(C(N)=O)c(NC(=O)C3CC3)n2)CCN(Cc2ccccc2Br)CC1
5. N#CCC1(n2cc(C(N)=O)c(NC(=O)C3CC3)n2)CCN(C(=O)CC(F)(F)F)CC1
6. COC(=O)Nc1nn(C2(CC#N)CCN(Cc3cc(O)c(-c4ccoc4)cc3F)CC2F)cc1C(N)=O (stereo not drawn)
7. CCc1ccc(-c2ccc(CN3CCC(CC#N)(n4cc(C(N)=O)c(NC(=O)OC)n4)C(F)C3)cc2)o1 (stereo not drawn)

output:
1. 8.07
2. 7.51
3. 6.56
4. 7.18
5. 7.15
6. 9.52
7. 9.05
